Data provenance: paper PMC10397247

- target-under-test: T1, 4H492-bH
- T1 chain: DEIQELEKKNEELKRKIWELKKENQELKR
- test: two-hybrid library CCNG1;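 also: natural log of median RNA to DNA barcode read ratio; higher means stronger binding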
attribute-measured: interaction score
Numbers only.

Examples from the recorded data:
binder="DEIQELEKKNEELKRKIWELKKENQELKR [4H492-bH]" measured_value=0.6
binder="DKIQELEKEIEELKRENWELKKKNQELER [4H2143-bH]" measured_value=-0.638

Please state interaction score for every binder in the list that follows.
1. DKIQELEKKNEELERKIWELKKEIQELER [4H2473-bH]
2. DKIQELKKENEELERENWELKKKIQELER [4H2717-bH]
3. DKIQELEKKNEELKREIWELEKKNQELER [4H2503-bH]

Output:
[0.0302, -0.752, -0.241]
